Where do these numbers come from? They come from patent US6814988B2.

- Measurement description: in vivo
- Condition set: female, cow, rumen concentration of HMB
Measured parameter: concentration at 24 h

Input: Using known records, supply concentration at 24 h for CSCCC(O)C(=O)O (stereo not shown)
Output: < 10 µg/mL

###

- Measurement description: in vivo
- Condition set: female, cow, HMB Concentration
Measured parameter: concentration at 0 h

Input: Tell me its concentration at 0 h given CSCCC(O)C(=O)O (stereo not shown) as the entry.
Output: < 10 µg/mL
